Experiment: Half life in non-human primate at 5 mg/kg, po
Type: ADME, organism-based
Design: dose 5 mg/kg, route oral
Details: monkey, in vivo
MEASURED PARAMETER: half-life (h)
Response body: numeric value in h, unit text excluded.

# input For `N#Cc1cccc(-c2c[nH]c3ncnc(N4CCOCC4)c23)c1` , what is its reported half-life?
# output 2.27

----------
Biological target: Leucine-rich repeat serine/threonine-protein kinase 2 (Homo sapiens, UniProt Q5S007, G2019S)
Sequence (Q5S007 whole entry G2019S, the tested form may be a part): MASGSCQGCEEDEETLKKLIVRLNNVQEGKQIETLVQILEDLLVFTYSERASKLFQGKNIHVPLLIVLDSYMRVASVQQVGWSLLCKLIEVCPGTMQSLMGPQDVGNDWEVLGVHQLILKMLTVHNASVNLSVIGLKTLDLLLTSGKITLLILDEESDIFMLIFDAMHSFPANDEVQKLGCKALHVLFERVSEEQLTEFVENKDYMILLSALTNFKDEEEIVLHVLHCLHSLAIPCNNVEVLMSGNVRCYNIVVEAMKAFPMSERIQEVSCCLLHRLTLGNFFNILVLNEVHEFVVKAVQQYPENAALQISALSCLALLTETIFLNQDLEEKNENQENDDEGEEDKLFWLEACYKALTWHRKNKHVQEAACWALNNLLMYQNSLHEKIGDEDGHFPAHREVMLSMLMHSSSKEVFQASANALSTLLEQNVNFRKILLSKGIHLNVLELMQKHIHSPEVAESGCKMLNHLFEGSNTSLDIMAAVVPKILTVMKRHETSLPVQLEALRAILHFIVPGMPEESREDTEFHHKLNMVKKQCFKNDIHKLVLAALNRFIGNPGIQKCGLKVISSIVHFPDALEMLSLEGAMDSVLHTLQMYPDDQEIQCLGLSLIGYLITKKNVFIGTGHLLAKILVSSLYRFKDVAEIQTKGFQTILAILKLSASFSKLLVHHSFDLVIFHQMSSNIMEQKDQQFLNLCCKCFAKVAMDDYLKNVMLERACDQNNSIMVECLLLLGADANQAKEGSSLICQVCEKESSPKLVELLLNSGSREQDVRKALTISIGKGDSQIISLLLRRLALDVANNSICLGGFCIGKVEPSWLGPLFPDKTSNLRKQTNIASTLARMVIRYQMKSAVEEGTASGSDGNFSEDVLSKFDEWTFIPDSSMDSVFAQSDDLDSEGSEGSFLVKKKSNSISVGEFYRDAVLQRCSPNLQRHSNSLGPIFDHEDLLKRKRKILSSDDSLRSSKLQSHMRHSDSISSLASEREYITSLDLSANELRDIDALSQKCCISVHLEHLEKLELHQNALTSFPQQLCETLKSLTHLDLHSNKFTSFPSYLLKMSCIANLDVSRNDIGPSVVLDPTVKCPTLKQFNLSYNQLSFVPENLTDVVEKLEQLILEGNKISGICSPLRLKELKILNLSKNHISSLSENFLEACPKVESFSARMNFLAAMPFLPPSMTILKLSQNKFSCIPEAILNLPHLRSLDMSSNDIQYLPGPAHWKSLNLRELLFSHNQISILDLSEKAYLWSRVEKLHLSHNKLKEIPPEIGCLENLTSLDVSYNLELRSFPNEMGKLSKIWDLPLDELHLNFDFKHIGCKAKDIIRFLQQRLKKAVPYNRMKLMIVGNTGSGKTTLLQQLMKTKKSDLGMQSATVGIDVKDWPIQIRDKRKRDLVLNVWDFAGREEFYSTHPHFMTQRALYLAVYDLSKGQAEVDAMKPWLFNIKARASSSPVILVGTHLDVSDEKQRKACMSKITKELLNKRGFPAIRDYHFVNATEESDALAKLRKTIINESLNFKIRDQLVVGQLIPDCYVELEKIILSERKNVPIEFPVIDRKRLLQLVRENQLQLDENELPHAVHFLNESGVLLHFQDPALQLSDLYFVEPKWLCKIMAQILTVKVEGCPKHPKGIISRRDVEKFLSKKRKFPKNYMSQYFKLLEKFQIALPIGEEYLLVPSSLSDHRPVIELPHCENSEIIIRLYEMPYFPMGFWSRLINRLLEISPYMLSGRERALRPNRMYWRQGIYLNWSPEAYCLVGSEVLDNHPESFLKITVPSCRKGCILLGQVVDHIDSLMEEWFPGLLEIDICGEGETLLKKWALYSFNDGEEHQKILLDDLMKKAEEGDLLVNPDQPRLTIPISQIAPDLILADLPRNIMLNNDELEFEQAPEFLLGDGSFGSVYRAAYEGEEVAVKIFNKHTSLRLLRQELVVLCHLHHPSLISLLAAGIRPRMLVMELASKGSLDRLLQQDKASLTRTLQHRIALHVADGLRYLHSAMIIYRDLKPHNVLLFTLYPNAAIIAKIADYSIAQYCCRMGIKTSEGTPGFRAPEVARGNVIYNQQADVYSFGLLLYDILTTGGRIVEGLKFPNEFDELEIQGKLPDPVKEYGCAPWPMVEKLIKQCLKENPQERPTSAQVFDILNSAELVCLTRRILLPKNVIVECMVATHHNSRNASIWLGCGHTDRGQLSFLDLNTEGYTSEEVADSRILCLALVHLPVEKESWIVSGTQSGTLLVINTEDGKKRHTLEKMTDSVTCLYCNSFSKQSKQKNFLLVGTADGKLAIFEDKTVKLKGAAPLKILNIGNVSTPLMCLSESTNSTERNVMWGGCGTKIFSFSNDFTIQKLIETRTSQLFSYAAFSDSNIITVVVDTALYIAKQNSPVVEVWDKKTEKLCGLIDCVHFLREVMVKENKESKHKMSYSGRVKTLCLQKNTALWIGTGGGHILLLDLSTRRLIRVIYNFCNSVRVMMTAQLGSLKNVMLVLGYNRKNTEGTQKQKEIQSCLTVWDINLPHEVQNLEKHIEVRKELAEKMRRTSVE
Experiment: Inhibition of GST-tagged truncated human recombinant LRRK2 G2019S mutant using fluorescein-labeled LRRKtide peptide substrate incubated for 90 mins
MEASURED PARAMETER: pIC50
Keep in mind that pIC50 stands for -log10 of concentration in molar terms.

Examples with answers:
CHEMICAL STRING: COC1CCN(c2ncnc3[nH]cc(-c4cccc(C#N)c4)c23)CC1
MEASURED PARAMETER: pIC50
VAL: 6.02

CHEMICAL STRING: C[C@@H]1CCCN(c2ncnc3[nH]cc(-c4cccc(C#N)c4)c23)C1
MEASURED PARAMETER: pIC50
VAL: 6.77

CHEMICAL STRING: N#Cc1cc(-c2c[nH]c3ncnc(N4CCOCC4)c23)ccn1
MEASURED PARAMETER: pIC50
VAL: 5.35

# input For `CN1CCN(c2ncnc3[nH]cc(-c4cccc(C#N)c4)c23)CC1` , what is its reported pIC50?
# output 5.28

# input For `N#Cc1cc(-c2c[nH]c3ncnc(N4CCOCC4)c23)ccc1F` , what is its reported pIC50?
# output 6.04

# input For `N#Cc1cncc(-c2c[nH]c3ncnc(N4CCOCC4)c23)c1` , what is its reported pIC50?
# output 5.18
